Experiment: Acute toxicity (LD50) in mice
Assay type: in vivo
Details: mouse, in vivo, intravenous administration
readout_type: LD50

Query block: Given CC1(C)[C@@H](O[C@H]2O[C@H](C(=O)O)[C@@H](O)[C@H](O)[C@H]2O[C@@H]2O[C@H](C(=O)O)[C@@H](O)[C@H](O)[C@H]2O)CC[C@]2(C)[C@H]3C(=O)C=C4[C@@H]5C[C@@](C)(C(=O)O)CC[C@]5(C)CC[C@@]4(C)[C@]3(C)CC[C@@H]12 [Compound B, Glycyrrhizin] , state its recorded LD50.
Result block: > 300 mg/kg
